- MEASUREMENT DESCRIPTION: Cytotoxicity against human monocytes assessed as depletion of cellular LDH activity
- Assay type: cell-based
- Design: concentration or dose not given beside the values
- CONDITION SUMMARY: monocyte
READOUT KIND: Activity

- COMPOUND: "COc1cc(-c2oc3c(OC)c(O)cc(O)c3c(=O)c2O)ccc1O"
  MEASURED RESULT: "> 20%"
- COMPOUND: "O=C1C[C@@H](c2ccc(O)c(O)c2)Oc2cc(O)cc(O)c21"
  MEASURED RESULT: "Non-toxic"
- COMPOUND: "Oc1cc(O)c2c(c1)O[C@H](c1ccc(O)c(O)c1)[C@H](O)C2 [(-)-EPICATECHIN]"
  MEASURED RESULT: "Non-toxic"
